The reported measurements were obtained from patent US20070184519A1.

biological target: HLA-DR molecule DRB1*1101 (human); assay: competition vs 125I probe, purified HLA
Classify: Y when IC50 is strictly less than 1 nM; N when IC50 is not.

Solved entries:
>>> print(df.to_string())
                                     binder  discrete_label
0  GLRSLTTLNRALGAQ [EPO 101 analog GLRSLTTLNRALGAQ]               Y
1  GLRSLTTLSRALGAQ [EPO 101 analog GLRSLTTLSRALGAQ]               N
2  GLRSLTTLPRALGAQ [EPO 101 analog GLRSLTTLPRALGAQ]               Y
3  GLRSLGTLLRALGAQ [EPO 101 analog GLRSLGTLLRALGAQ]               N
4  GLRSLTTLARALGAQ [EPO 101 analog GLRSLTTLARALGAQ]               Y

Consider the record given below.
Query block: Lab log: compare recorded IC50 with 1 nM; is it strictly lower for GLRSLTTLTRALGAQ [EPO 101 analog GLRSLTTLTRALGAQ] ?
Result block: N
